Reference for the values: the supplement of paper PMC5412046

# Test system: SB.mhdgc-1
# experiment.description: AC50 for growth inhibition (viability) (log10 M); higher = less potent
# assay.conditions: SB.mhdgc-1 (hereditary c.1380delA CDH1 gastric cancer)
# if measured AC50 for growth inhibition (log10 M) < -5: Y  # else: N

compound	target	class.name
CCc1cc(-c2n[nH]c(C)c2-c2ccc3c(c2)OCCO3)c(O)cc1O	SB.mhdgc-1	Y

input: Answer whether the compound CN1CCN(CC1)C2=CC3=C([NH]C(=N3)C/4=C(\N)C5=C(F)C=CC=C5NC4=O)C=C2 has AC50 for growth inhibition (log10 M) strictly less than -5
output: N

input: Please answer likewise for C[C@](O)(CS(=O)(=O)c1ccc(F)cc1)C(=O)Nc1ccc(C#N)c(C(F)(F)F)c1 [(R)-Bicalutamide]
output: Y

input: Please answer likewise for CO[C@@H]1[C@H](N(C)C(=O)c2ccccc2)C[C@H]2O[C@]1(C)n1c3ccccc3c3c4c(c5c6ccccc6n2c5c31)C(=O)NC4
output: Y

input: Please answer likewise for C=CC(=O)Nc1cccc(Oc2nc(Nc3ccc(N4CCN(C)CC4)cc3)ncc2Cl)c1
output: Y

input: Please answer likewise for COc1cc2c(Nc3ccc(Br)cc3F)ncnc2cc1OCC1CCN(C)CC1
output: N

input: Please answer likewise for O=C1c2c(O)ccc(O)c2C(=O)c2c(NCCNCCO)ccc(NCCNCCO)c21
output: Y

input: Please answer likewise for Nc1nc(N)c(N=O)c(OCC2CCCCC2)n1
output: Y

---

# Tested on: SB.msgc-1
# experiment.description: area under the dose-response curve of % viability (trapezoidal, 11 doses) (% viability x log10 concentration); higher = less cytotoxic
# assay.conditions: SB.msgc-1 (sporadic gastric cancer)
Where a name gives a salt, the structure may show the parent alone.
Can you tell me area under the dose-response curve for the items I'm about to list?
One number for each entry.

Required: area under the dose-response curve, one value per compound below.
1. COc1ccc(-c2c(-c3ccc(O)cc3O)n[nH]c2C)cc1 [PDHK RIKEN] (top concentration 92.1659 µM)
2. Cn1cc(-c2ccncc2)c(-c2ccc(OCc3ccc4ccccc4n3)cc2)n1 [MP-10] (top concentration 46.0829 µM)
3. CN[C@@H]1[C@H](O)[C@H](NC)[C@H]2O[C@@]3(O)C(=O)C[C@@H](C)O[C@H]3O[C@@H]2[C@H]1O [Spectinomycin hydrochloride] (top concentration 46.0829 µM)
4. Cc1noc(N[S+](=O)([O-])c2ccc(N)cc2)c1C [Sulfafurazole] (top concentration 46.0829 µM)
5. COc1ccc([S+](=O)([O-])Nc2cccnc2Nc2ccc(O)cc2)cc1 [E-7010] (top concentration 46.0829 µM)
6. COc1cc(C(=O)N2CCC(N3CCN(C)CC3)CC2)ccc1Nc1ncc2c(n1)N(C)c1ccccc1C(=O)N2C [LRRK2-IN-1] (top concentration 46.0829 µM)
7. CC(C)[C@@H](N(CCCN)C(=O)C1=CC=C(C)C=C1)C/2=C(\CC3=CC=CC=C3)C(=O)C4=C(O2)C=C(Cl)C=C4 (top concentration 46.0829 µM)

output:
[518, 495, 328, 516, 378, 423, 196]

Required: area under the dose-response curve, one value per compound below.
1. CN1CC[C@H]([C@@H](O)C1)C2=C(O)C=C(O)C3=C2O\C(=C/C3=O)C4=CC=CC=C4Cl (top concentration 46.0829 µM)
2. COc1ccc2cccc(CCNC(C)=O)c2c1 [Agomelatine] (top concentration 46.0829 µM)
3. C=C1C(=O)O[C@@H]2[C@H]3O[C@]3(C)CC/C=C(\C)CC[C@@H]12 [Parthenolide] (top concentration 46.0829 µM)
4. COC(=O)c1ccc2c(c1)NC(=O)/C2=C(\Nc1ccc(N(C)C(=O)CN2CCN(C)CC2)cc1)c1ccccc1 [Vargatef] (top concentration 46.0829 µM)
5. Cc1csc(NC(=O)c2sc3nc4c(c(C(F)(F)F)c3c2N)CCC4)n1 [Irestatin 9389] (top concentration 46.0829 µM)
6. CC(C)C[C@H](NC(=O)[C@H](CCc1ccccc1)NC(=O)CN1CCOCC1)C(=O)N[C@@H](Cc1ccccc1)C(=O)N[C@@H](CC(C)C)C(=O)[C@@]1(C)CO1 [Carfilzomib] (top concentration 46.0829 µM)

output:
325
531
457
409
490
157

Required: area under the dose-response curve, one value per compound below.
1. CCn1c(-c2nonc2N)nc2cncc(CNC3CCNCC3)c21 (top concentration 46.0829 µM)
2. O=C(CCc1ccc(O)cc1)c1c(O)cc(O)cc1O [Phloretin] (top concentration 46.0829 µM)
3. CC1=CC2=C(O1)C(=C3OC(=O)\C=C(C)/C3=C2)C [Trioxsalen] (top concentration 46.0829 µM)
4. CN1CCN(CC1)C2=CC3=C([NH]C(=N3)C/4=C(\N)C5=C(F)C=CC=C5NC4=O)C=C2 [Dovitinib] (top concentration 46.0829 µM)
5. CC(=O)OCC(CCn1cnc2cnc(N)nc21)COC(C)=O [Famciclovir] (top concentration 46.0829 µM)
6. CC(C)(C)C1=CC(=C(NC(=O)C/2=C/NC3=C(C=CC=C3)C2=O)C=C1O)C(C)(C)C [Ivacaftor] (top concentration 46.0829 µM)
7. O=C(O)c1ccc(-c2c[nH]c3ncc(-c4ccccc4)cc23)cc1C1CCCC1 (top concentration 46.0829 µM)
8. Cc1ccc(CN2CCNCC2)cc1NC(=O)CNc1ccc(F)c(F)c1 (top concentration 46.0829 µM)

output:
1. 534
2. 380
3. 542
4. 481
5. 553
6. 535
7. 474
8. 488

Required: area under the dose-response curve, one value per compound below.
1. Cc1c(C(=O)NN2CCCCC2)nn(-c2ccc(Cl)cc2Cl)c1-c1ccc(Cl)cc1 [Rimonabant] (top concentration 46.0829 µM)
2. C[C@]12CC[C@H]3[C@@H](CCC/4=C/C(=O)CC[C@]34C)[C@@H]1CC[C@@H]2O [Testosterone] (top concentration 46.0829 µM)
3. C[C@H]1C[C@@H]2[C@H](CC[C@@]3(C)[C@H]2CC[C@]3(OC(C)=O)C(C)=O)[C@@]\4(C)CCC(=O)\C=C14 [Medroxyprogesterone acetate] (top concentration 46.0829 µM)

output:
1. 515
2. 468
3. 524
